target: pEGFR (Tyr1068) in PC-9 cells (Ex19Del) (Homo sapiens (Human), UniProt P00533, DEL746-750); assay: PC-9 pEGFR AlphaLISA assay; settings: 4 hours incubation, p-EGFR (Tyr1068) AlphaLISA, read-out: Ext pEGFR_PC-9 Ex19Del IC50
Sequence (P00533 other isoform, or with tags, fused parts or gaps del 746-750): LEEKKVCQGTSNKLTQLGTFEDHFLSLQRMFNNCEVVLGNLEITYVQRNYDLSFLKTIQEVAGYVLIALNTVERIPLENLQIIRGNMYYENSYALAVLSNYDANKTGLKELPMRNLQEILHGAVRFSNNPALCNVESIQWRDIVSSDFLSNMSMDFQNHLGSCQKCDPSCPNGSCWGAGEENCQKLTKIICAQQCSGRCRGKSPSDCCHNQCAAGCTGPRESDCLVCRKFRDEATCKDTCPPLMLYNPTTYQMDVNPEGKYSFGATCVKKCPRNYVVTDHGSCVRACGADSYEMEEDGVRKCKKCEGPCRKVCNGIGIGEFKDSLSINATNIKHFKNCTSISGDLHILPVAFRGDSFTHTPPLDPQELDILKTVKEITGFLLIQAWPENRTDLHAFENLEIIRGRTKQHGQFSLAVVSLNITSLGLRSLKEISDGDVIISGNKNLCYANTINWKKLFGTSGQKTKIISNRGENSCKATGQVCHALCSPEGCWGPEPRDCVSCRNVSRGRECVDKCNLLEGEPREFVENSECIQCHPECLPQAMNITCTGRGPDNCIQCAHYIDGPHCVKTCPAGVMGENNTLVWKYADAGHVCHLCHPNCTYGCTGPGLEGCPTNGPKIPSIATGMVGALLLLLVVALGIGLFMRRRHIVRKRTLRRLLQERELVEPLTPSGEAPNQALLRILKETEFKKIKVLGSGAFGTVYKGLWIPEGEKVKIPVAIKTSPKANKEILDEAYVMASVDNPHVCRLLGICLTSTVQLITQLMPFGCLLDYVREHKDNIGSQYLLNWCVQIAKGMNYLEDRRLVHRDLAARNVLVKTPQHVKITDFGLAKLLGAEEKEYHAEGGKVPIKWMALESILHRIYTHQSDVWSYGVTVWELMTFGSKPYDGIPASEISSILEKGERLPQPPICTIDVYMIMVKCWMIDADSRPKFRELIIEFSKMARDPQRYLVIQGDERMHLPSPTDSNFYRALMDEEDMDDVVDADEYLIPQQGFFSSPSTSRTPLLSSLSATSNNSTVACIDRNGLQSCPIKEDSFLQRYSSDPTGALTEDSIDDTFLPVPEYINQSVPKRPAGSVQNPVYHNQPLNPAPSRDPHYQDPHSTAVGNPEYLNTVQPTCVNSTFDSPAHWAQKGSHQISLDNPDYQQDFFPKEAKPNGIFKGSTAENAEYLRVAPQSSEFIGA
Where a name gives a salt, the structure may show the parent alone.
Listed next: entries and their corresponding IC50.
Give just the numeric value; nM need not be written.

Examples with their reported IC50 follow.
molecule | unit.abbrev | IC50
CCC(=O)Nc1cc2c(-c3cn(C)nc3-c3ccccc3)ncnc2cc1OCC1COC1 [Example 277] | nM | 6
CCn1cc(-c2ncnc3cc(-c4cnn(C)c4)ccc23)c(-c2ccccc2)n1 [Example 496] | nM | 0.4
COc1cc2ncnc(-c3cn(C)nc3-c3ccccc3)c2cc1NC(=O)C[C@@H]1CCCO1 [Example 281] | nM | 2.3
COc1cc2ncnc(-c3cn(CC(F)F)nc3-c3ccccc3)c2cc1OC(=O)N1CCOC[C@@H]1C [Example 76] | nM | 1.4

The molecule identified as COc1cc2ncnc(-c3cn(C)nc3-c3ccccc3)c2cc1NC(=O)N1CCN(C)[C@@H]2C[C@@H]21 (stereo in doubt) [Example 186] registered its IC50 at 4

So for CCn1cc(-c2ncnc3cc(OC)c(NC(=O)[C@]45COC[C@H]4C5)cc23)c(-c2ccccc2F)n1 (mixture of isomers) [Example 263] , the logged IC50 turned out to be 2.7

In plain terms, COc1cc2ncnc(-c3cn(C)nc3-c3ccccc3)c2nc1OC(C)c1nnnn1C (centres unmarked) [Example 29] has a documented IC50 of 11.3

get_value(item= COc1cc2ncnc(-c3cn(C)nc3-c3ccccc3F)c2cc1NC(=O)[C@@]12COC[C@@H]1C2 (single isomer, unassigned) [Example 240] , readout=IC50) returns 1.4

response.value for CCC(=O)Nc1cc2c(-c3cn(C)nc3-c3ccccc3)ncnc2cc1-n1ccc(C)n1 [Example 450] (field: IC50) = 1

Entry COc1cc2ncnc(-c3cn(C)nc3-c3ccccc3F)c2nc1NC(=O)[C@]12COC[C@H]1C2 (single isomer, unassigned) [Example 386] ; IC50 = 1.7

Sure, the documented IC50 for COc1cc2ncnc(-c3cn(C)nc3-c3ccccc3)c2nc1NC(=O)C1(C(F)(F)F)CCOCC1 [Example 383] is 5.7

Recorded result, COc1cc2ncnc(-c3cn(CC(F)F)nc3-c3ccccc3)c2cc1C1(O)CC1 [Example 126] , IC50: 3.2

COc1cc2ncnc(-c3cn(C)nc3-c3ccccc3)c2cc1C(C)O (centres unmarked) [Example 100] has a reported IC50 of 7.6

// IC50 value for CCOc1cc2ncnc(-c3cn(C(C)C)nc3-c3ccccc3)c2cc1[C@@H](C)O (single isomer, unassigned) [Example 109] : 4.7

Reported IC50 for CCOc1cc2ncnc(-c3cn(C)nc3-c3ccccc3)c2cc1NC(=O)c1cnn(C(F)(F)F)c1 [Example 232] was 4.1

What the record says about CCN1CCN(C(=O)Oc2cc3c(-c4cn(C)nc4-c4ccccc4)ncnc3cc2OC)[C@@H](C)C1 [Example 75] : IC50 is 3.6

Note to self: IC50 recorded for COc1cc2ncnc(-c3cn(CCN(C)C)nc3-c3ccccc3)c2cc1NC(=O)C12CC(C1)C2 [Example 308] was 6.1

Reported IC50 of COc1cc2ncnc(-c3cn(C)nc3-c3ccccc3)c2cc1-c1ccnc(N2CCNCC2)c1 [Example 139, formate] : 5.1

Measured IC50 of CCOc1cc2ncnc(-c3cn(C)nc3-c3ccccc3)c2cc1N1CCOCC1 [Example 163] : 5.5

Input CCn1cc(-c2ncnc3cc(OC)c(NC(=O)[C@]45COC[C@H]4C5)cc23)c(-c2ccc(F)cc2)n1 [Example 335] . Output IC50: 3

The molecule CCOc1cc2ncnc(-c3cn(C)nc3-c3ccccc3)c2cc1NC(=O)[C@@]12C[C@@H]1CN(C)C2 (single isomer, unassigned) [Example 256] showed IC50 equal to 2

Memo: COc1cc2ncnc(-c3cn(CC(F)F)nc3-c3ccccc3)c2nc1NC(=O)C1(C(F)(F)F)CC1 [Example 370] , reported IC50: 0.4

Looking up CN(C)C12CC(C(=O)Nc3nc4c(-c5cn(C)nc5-c5ccc(F)cc5)ncnc4cc3OC3CC3)(C1)C2 [Example 461] , I found its IC50 recorded as 7.2

Please fill in: IC50 reported for CCOc1cc2ncnc(-c3cn(C)nc3-c3ccccc3)c2cc1NC(=O)c1cnn(CC)c1 [Example 298] = 1

// field: IC50; key: CC(C)Oc1cc2ncnc(-c3cn(C)nc3-c3ccccc3)c2cc1OC(C)C [Example 26] ; value = 8

Item: COc1cc2ncnc(-c3cn(C)nc3-c3ccccc3)c2cc1NC(=O)N1C[C@@H](C)N(C)C[C@@H]1C [Example 182] | IC50: 5.2

The molecule listed as CCOc1cc2ncnc(-c3cn(C)nc3-c3ccccc3)c2cc1[C@H](C)O (single isomer, unassigned) [Example 103] has a reported IC50 of 2.7

The recorded IC50 for entry COc1cc2ncnc(-c3cn(C)nc3-c3ccccc3)c2nc1NC(=O)[C@@]1(C(F)(F)F)CCCN1C (single isomer, unassigned) [Example 429] equals 11.4

The measured IC50 associated with COc1cc2ncnc(-c3cn(C)nc3-c3ccccc3)c2cc1NC(=O)c1cccc(F)c1Cl [Example 199] reads 1.9
